Attribute: growth
# Tested on: OVCAR-4 ovarian
# protocol description: NCI-60 one-dose screen, 48 h (100 = growth as untreated, 0 = no growth, -100 = all killed)
# condition context: 10 µM unless noted
About 83,000 compounds went through this panel and 20% of them were active in at least one assay; those are over-represented in the sample as a whole.
measured quantity: growth (%)

compound | observed result
O=C(NCCCCO)c1cncnc1Nc1ccc2c(ccn2Cc2cccc(F)c2)c1 | 100
Cc1ccc(Cc2cnc(NC(=O)/C=C/c3ccc(C)o3)s2)cc1 | 73.4
c1ccc2cc(Cn3cc(CSc4nc5ccccc5s4)nn3)ccc2c1 | 98.1
COc1ccc(/C=C/C(c2cc(OC)c(OC)c(OC)c2)n2cncn2)cc1O (stereo unspecified) | 83.5
O=C1/C(=C/c2cccc(Br)c2)COc2ccc(O)cc21 | 83.4
N=C(N)c1ccc(-c2ccc(-c3ccccc3)o2)o1 | 63.1
O=c1cc(CP(=O)(O)O)c2cc(O)c(-c3ccccc3)cc2o1 | 98.5
CCCCNC(=O)c1ccc2c(c1)nc(-c1ccccc1)n2C1CCCCC1 | 102
CCOC(=O)NC(=S)n1oc(=O)c2ccccc21 | 96.5
N=C(N)c1ccc(-c2ccc(-c3cc(Cl)cc(Cl)c3)s2)s1 | -58
CN(C)c1ccc(C(=S)c2ccc(N(C)C)cc2)cc1 | 83
CCOC(=O)C(CCN(C)C)c1ccccc1 (stereo unspecified) | 100
COC1C(O)CC(OC2CC(OC3CC(O[C@@H]4C(=O)c5c(cc6cc(OC7CC(OC8CC(O)C(O)C(C)O8)C(O)C(C)O7)c(C)c(O)c6c5O)CC4[C@H](OC)C(=O)C(C)=O)OC(C)C3O)OC(C)C2O)OC1C (stereo partly specified) | 10.7
O=C(Nc1ccccc1O)c1ccc(CNc2ccnc(C(F)(F)F)c2)cc1 | 52.5
OC1CSSC1Cn1cnc2c(Nc3ccc(OCc4cccc(F)c4)c(Cl)c3)ncnc21 (stereo unspecified) | 4.03
C/C(Cc1ccc(Cl)cc1)=C(\c1ccc(OCCN2CCCCCC2)cc1)c1ccc(OC(=O)c2ccccc2)cc1 | 36.6
CS(=O)(=O)Nc1cc(-c2ccc3ncnc(Nc4ccc5c(cnn5Cc5ccccc5F)c4)c3c2)cnc1Cl | 63.4
C(=C(\C1=NCCN1)n1ccc2ccccc21)/c1ccccc1 | 103
CCOC(=O)C1=C(CCl)N(C)C(=O)NC1c1ccc2c(c1)OCO2 (stereo unspecified) | 55.9
COc1ccc(C=Nc2c(C(=O)Nc3cccc(Cl)c3C)sc3nc(C)c(C(=O)/C=C/c4ccc(OC)cc4)cc23)cc1 | 58.2
COc1ccc(C(=O)C/C(=C\c2ccc(O)c(OC)c2)C(=O)NN)cc1 | 101
COc1cc(-c2ccc[nH]2)[nH]c1/C=C1\N=C(C)C(CC(=O)OCC(C)(C)C)=C1C | -91.5
O=C(O)CC(C(=O)O)/C(=C\c1ccccc1)c1ccccc1 (stereo unspecified) | 107
C=C(C)[C@@H]1CC[C@]2(C)[C@H](C=CC3=C4C[C@@](C)(CO)CC[C@]4(C)CC[C@]32C)[C@@]1(C)CCCN | -55.4
CCN(CC)CCCC(Cc1ccccc1)Nc1c2ccc(Cl)cc2nc2ccc(OC)cc12 (stereo unspecified) | 30.8
CN(C)/C(N)=N/N=C(\c1ccccc1)c1ccccn1 | 86.6
C=CCn1cc(-c2nc3ccccc3s2)c2cc(-c3ccc4c5c(cccc35)C(=O)N(CCO)C4=O)ccc21 | 99.6
Nc1ncnc2c1N=C(c1ccc(Cl)cc1)CC(c1cccc(Nc3ccnc4cc(Cl)ccc34)c1)N2 (stereo unspecified) | 70.7
COc1cc(/C=C2\C(=O)N(CCCOc3cc(O)c4c(=O)cc(-c5ccccc5)oc4c3)c3ccccc32)cc(OC)c1O | 83.6
C=C1SC(=Nc2ccccc2Cl)N(C(=O)c2sc3ccccc3c2Cl)C1(C)C | 29.8
CCOc1ccc(NC(=O)Nc2ccc(OCC)cc2)cc1 | 112
c1ccc(-c2ccc3c(c2)C2(CCNCC2)CN3)cc1 | 91.5
COc1cc(-c2ccc(-c3ccc(C(=N)N)cc3)s2)cc(OC)c1OC | 54
CC1(C)N=C(N)N=C(N)N1c1ccc(S(=O)(=O)Nc2nccs2)cc1 | 104
COc1ccc(Nc2ncc(I)c(NCCCNC(=O)C3CCC3)n2)cc1 | 42.2
CCOC(=O)c1c(C)nc2c(c1N)C(=O)C(=O)N2Cc1ccc(OC)cc1 | 46.6

* * *

# Test system: SK-MEL-2 melanoma
# protocol description: NCI-60 one-dose screen, 48 h (100 = growth as untreated, 0 = no growth, -100 = all killed)
# condition context: 10 µM unless noted
This is part of a sample that, as a whole, favours compounds with a hit. Of some 83,000 tested, about 20% had one in any assay. Activity calls are given as the source filed them. The calls were made as follows: active = growth percent below 10; inactive = the rest.

compound | tested system | growth
Nc1cccc(-c2ccc(COc3ccc(CC4SC(=O)NC4=O)cc3)cc2)c1 (centres undefined) | SK-MEL-2 melanoma | 52.3% (inactive)
COc1ccc2c(c1)c(-c1nc(-c3ccc4ccccc4c3)cs1)cn2C | SK-MEL-2 melanoma | 108% (inactive)
C=C1C(=O)O[C@H]2[C@H]1CC/C(COC(=O)NCc1ccc(Cn3c(=O)sn(-c4ccccc4)c3=O)cc1)=C\CC[C@@]1(C)O[C@@H]21 | SK-MEL-2 melanoma | 49.6% (inactive)
CS(=O)(=O)c1ccc(-c2nc3ccccc3n2CC(=O)N/N=C/c2ccccc2)cc1 | SK-MEL-2 melanoma | 99.7% (inactive)
C=CN(C(=O)N1CCN(c2cc3c(cc2F)c(=O)c(C(=O)O)cn3C2CC2)CC1)c1nc(-c2ccc(Cl)cc2)cs1 | SK-MEL-2 melanoma | 86.5% (inactive)
CCN(CC)CCCNc1cc(OC)c(OC)c2cccnc12 | SK-MEL-2 melanoma | 88.1% (inactive)
Cc1ccc(S(=O)(=O)c2nc(-c3ccccc3)oc2SCC(N)=O)cc1 | SK-MEL-2 melanoma | 94.3% (inactive)
CN1C(=O)/C(=C/c2ccc(C(=O)Nc3ncc(Cc4cccc(C(F)(F)F)c4)s3)cc2)SC1=S | SK-MEL-2 melanoma | 56.7% (inactive)
COc1cc2ncnc(Nc3ccc(S(=O)(=O)Nc4nccs4)cc3)c2cc1OCCCN1CCCC1 | SK-MEL-2 melanoma | 114% (inactive)
CCCn1c(=S)sc2c(NNC(C)=O)nc(C)nc21 | SK-MEL-2 melanoma | 92.5% (inactive)
O=S(=O)(Nc1ccc2ccccc2c1)c1ccc(-c2cnc(C3CC3)o2)cc1 | SK-MEL-2 melanoma | 40.2% (inactive)
C[N+]1=C(/C=C/c2ccccc2Cl)C(C)(C)c2ccccc21 | SK-MEL-2 melanoma | 109% (inactive)
CCOC(=O)CC1CSC(N/N=C/c2ccc(F)c(Br)c2)=N1 (centres undefined) | SK-MEL-2 melanoma | 104% (inactive)
O=Nc1ccc(NC(=O)Nc2ccc([N+](=O)[O-])cc2)cc1 | SK-MEL-2 melanoma | 116% (inactive)
C[C@H]1[C@H](C)CC[C@]2(C(=O)NCCNCCN)CC[C@]3(C)C(=CC[C@@H]4[C@@]5(C)CCC(=O)C(C)(C)[C@@H]5CC[C@]43C)[C@H]12 | SK-MEL-2 melanoma | 91.4% (inactive)
CN(C)CCCNC(=O)c1cncnc1Nc1ccc2c(ccn2Cc2cccc(F)c2)c1 | SK-MEL-2 melanoma | 107% (inactive)
COc1ccc(C(=O)/C=C/c2ccccc2)cc1S(N)(=O)=O | SK-MEL-2 melanoma | 89.8% (inactive)
COc1ccccc1/C=C/C(=O)Nc1ccc(F)cc1 | SK-MEL-2 melanoma | 99.1% (inactive)
COc1ccc(CNc2ccc3nc(NC(=O)CN4CCCCCC4)sc3c2)cc1 | SK-MEL-2 melanoma | 85.4% (inactive)

* * *

# Test system: M14 melanoma
# protocol description: NCI-60 one-dose screen, 48 h (100 = growth as untreated, 0 = no growth, -100 = all killed)
# condition context: 10 µM unless noted
Compounds without any hit were thinned out: in the full panel of roughly 83,000, 20% have a hit.
Overview of reported growth across a group of compounds:

compound | growth / %
COc1ccc(/C=N/Nc2c3ccccc3nc3ccccc23)cc1 | 106
CCOC(=O)C/C(=N\Nc1cc(=O)[nH]c2ccc(OC)cc12)C(=O)OCC | 102
COC(=O)c1ccc2cc(OC)c(OC)cc2c1 | 110
Oc1c(I)cc(I)cc1CN(Cc1ccccn1)Cc1ccccn1 | -16.6
COc1ccc2cc(-c3nc4ccc(C)cn4c3NCc3ccco3)c(=O)[nH]c2c1 | 86.8
COc1ccc2c(c1)oc1c(C)c3c(c(C)c12)C(=O)N(CCOS(C)(=O)=O)C3=O | 103
COc1cc2c(c(OC)c1OC)CCC(c1cccc(C(=O)Nc3ccc(Br)cc3)c1)O2 (configuration not stated) | 70.5
O=C(c1c[nH]c2ccccc12)c1n[nH]c(=S)n1-c1ccc([N+](=O)[O-])cc1 | 95.9
CC1(C)N=C(N)N=C(N)N1c1ccc(S(=O)(=O)Nc2nccs2)cc1 | 99.6
CCCCCCCCn1ccc2cc(NC(=O)CN3CCN(c4cc(C)nc(Cl)n4)CC3)ccc21 | 89.4
O=Nc1ccc(NC(=O)Nc2ccc([N+](=O)[O-])cc2)cc1 | 102
COc1cc2ncnc(Nc3ccc(S(=O)(=O)Nc4nccs4)cc3)c2cc1OCCCN1CCCC1 | 109
Cc1ccc(NC(=O)c2cc3ccccc3cc2O)c(C)c1 | 86.9
CSc1nc(-c2ccco2)c(C#N)c(=O)n1C | 108
Cc1ccc(OCCOCCOCCOc2ccc(C)n(O)c2=S)c(=S)n1O | 36
C=C(C)[C@@H]1CC[C@]2(CO)CC[C@]3(C)[C@H](CC[C@@H]4[C@@](C)(CCCN)[C@H](C(=C)C)CC[C@]43C)[C@@H]12 | -74.9
Nc1cccc(-c2ccc(COc3ccc(CC4SC(=O)NC4=O)cc3)cc2)c1 (configuration not stated) | 36.5
CC(C)CCC[C@@H](C)[C@H]1CC[C@H]2[C@@H]3CC=C4c5sc(Nc6cc(C(F)(F)F)cc(C(F)(F)F)c6)nc5CC[C@]4(C)[C@H]3CC[C@]12C | 98.6
O=C(/C=C/c1cn(-c2ccccc2)nc1-c1ccccc1)CCC(=O)NO | 100
COc1cc(C=C2C(=O)NC(=S)NC2=O)cc(CN2CCCC2)c1O | 109
CCN(CC)C(=O)CC1=C(C)/C(=C/c2[nH]c(-c3ccc[nH]3)cc2OC)N=C1C | -55.8
Clc1ccc(Nc2nnc(CNc3ccccc3)c3ccccc23)cc1 | 5.8
CCCC(=O)NC(c1ccc2c(c1)OCO2)c1cc(Cl)c2cccnc2c1O (configuration not stated) | 26.3
CCOC(=O)C(CCN(C)C)c1ccccc1 (configuration not stated) | 106
COc1cc([C@@H](CCO)C[C@H](C)c2ccc3ccccc3c2)cc(OC)c1OC | 15.5
COc1ccc(/C=N/NC(=O)Cn2c(-c3ccc(S(C)(=O)=O)cc3)nc3ccccc32)cc1 | 92.1
CC(=O)N1N=C(c2ccc(Nc3nc(Nc4ccc(F)cc4)nc(Nc4ccc(F)cc4)n3)cc2)CC1c1ccc(N(C)C)cc1 (configuration not stated) | 40.2

// provenance: PubChem BioAssay (NCI)
